Where these numbers come from: paper PMC2834293

# targetEntity: recombinant soluble human furin (Homo sapiens, UniProt P09958)
# Sequence (P09958 108-715 limits assumed): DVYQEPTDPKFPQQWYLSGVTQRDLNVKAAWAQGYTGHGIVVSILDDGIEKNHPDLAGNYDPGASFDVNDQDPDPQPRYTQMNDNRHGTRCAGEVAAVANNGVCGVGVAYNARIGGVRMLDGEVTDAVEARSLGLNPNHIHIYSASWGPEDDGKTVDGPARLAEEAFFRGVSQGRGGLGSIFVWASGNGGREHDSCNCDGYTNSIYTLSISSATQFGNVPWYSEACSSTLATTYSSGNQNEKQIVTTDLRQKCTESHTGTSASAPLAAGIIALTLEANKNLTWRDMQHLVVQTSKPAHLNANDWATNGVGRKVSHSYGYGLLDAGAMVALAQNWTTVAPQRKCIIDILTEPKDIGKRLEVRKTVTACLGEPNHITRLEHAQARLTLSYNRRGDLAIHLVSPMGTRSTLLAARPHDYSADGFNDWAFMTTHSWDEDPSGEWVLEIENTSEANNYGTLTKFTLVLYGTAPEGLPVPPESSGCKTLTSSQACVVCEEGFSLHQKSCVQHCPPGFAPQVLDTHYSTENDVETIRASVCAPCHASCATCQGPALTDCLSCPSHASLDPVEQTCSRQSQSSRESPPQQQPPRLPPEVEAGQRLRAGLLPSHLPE
# assayProcedure: Enzyme kinetics with furin
reportedProperty: Ki (µM)
Answers are plain numbers, in µM.

N=C(N)c1ccc(CN)cc1 [compound 1, 4-amidinobenzylamine] : 1200

Kindly review the next molecule as well.
IN: Reported Ki for N=C(N)c1ccccc1 [benzamidine, reference compound] : what is it?
OUT: 750
